This collection of values is drawn from the supplement of paper PMC7877785.

What self-splicing fitness (ln) was measured for each of the following?
test: self-splicing fitness, log relative to wild type (ln ratio); higher = more splicing; Tetrahymena group I intron in knt gene, E. coli kanamycin selection, DiMSum; sequences stand for … in CUCUCU…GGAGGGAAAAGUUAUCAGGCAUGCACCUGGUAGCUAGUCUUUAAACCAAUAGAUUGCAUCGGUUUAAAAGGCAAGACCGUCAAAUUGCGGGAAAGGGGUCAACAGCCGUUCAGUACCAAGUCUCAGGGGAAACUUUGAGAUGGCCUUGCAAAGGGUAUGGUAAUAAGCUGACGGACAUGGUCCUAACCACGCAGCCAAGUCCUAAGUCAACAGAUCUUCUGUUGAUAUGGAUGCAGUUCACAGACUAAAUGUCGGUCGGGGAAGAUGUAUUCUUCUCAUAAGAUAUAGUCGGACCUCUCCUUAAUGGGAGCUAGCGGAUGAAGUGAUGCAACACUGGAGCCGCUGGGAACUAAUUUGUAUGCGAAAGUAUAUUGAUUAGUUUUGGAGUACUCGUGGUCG; details: 37 °C;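 further: selection with 25 µg/mL kanamycin versus none on LB agar overnight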
One number for each entry.

These recorded examples may help you get a feel for the data.
I have this sequence here, AGAGAGCAAUAUUACGCUAA , and I need its recorded self-splicing fitness (ln). -0.209

Also, UUUGAGCAAUAUUACGGGGC please. -2.07

Please do the same for CCCUAGCAAUAUUACGAGGG as well. -2.09

Input UCUUAGCAAUAUUACGGUGG -1.2

Again, but for CCCGAGCAAUAUUACGAGGA -0.976

Cool, now ACGUAGCAAUAUUACGUCUU -1.92

Now the sequence ACCCAGCAAUAUUACGGAGC -0.369

Also need CUACAGCAAUAUUACGCGAC , thanks. -0.76

Please supply self-splicing fitness (ln) for each of the following items, keeping them in order.
1. CGGCAGCAAUAUUACGCUAU
2. CACUAGCAAUAUUACGGGAA
3. GCCAAGCAAUAUUACGCAUU
4. GCUAAGCAAUAUUACGAGCA
5. GGCCAGCAAUAUUACGCUAA
6. UGAUAGCAAUAUUACGAUGC
7. CAGUAGCAAUAUUACGAAAG

[-2.75, -2.29, -0.715, -1.03, -0.303, -1.95, -0.726]

Lab note: each sequence below needs its self-splicing fitness (ln) filled in.
1. GUUCAGCAAUAUUACGGCCU
2. AUGAAGCAAUAUUACGUGAA
3. AACAAGCAAUAUUACGCAUG
4. CAGCAGCAAUAUUACGUGUG
5. AUUAAGCAAUAUUACGUCUA
6. UAGAAGCAAUAUUACGACGA
7. UGCCAGCAAUAUUACGACAG
8. GUUCAGCAAUAUUACGAGCC

-0.57
-0.731
-0.726
-1.32
0.119
-0.0918
-0.406
-2.48
